Origin of the recorded values: PubChem BioAssay

assay: inhibitors of poly I:C-induced TLR3 signaling, primary screen, cell-based, poly I:C stimulus, luciferase, 10K MLSCN set (AID 602277); details: HEK293-TLR3 RL24 IRF3 luciferase reporter, at 10 µM, stronger effect = higher value
ENDPOINT LABEL: inhibition (%)
Write down the numeric answer in % and omit the unit.

Entry Cc1ccc(NC(=O)C2CCCN(S(=O)(=O)c3cnc[nH]3)C2)c(Br)c1 (configuration not stated) ; inhibition = -7.13

Entry COc1ccc(-n2c(SCc3ccc(C#N)cc3)nnc2-c2ccccn2)cc1 ; inhibition = 11.2

Entry CC(C)c1nnc(NC(=O)c2ccc(N3C(=O)CCC3=O)cc2)s1 ; inhibition = -7.88

Entry Cc1nn(-c2ccccc2)c(C)c1/C=N/O ; inhibition = -14.8

Entry Cc1ccc(-c2nn(C)c(=O)c3ccccc23)cc1S(=O)(=O)NCCN1CCOCC1 ; inhibition = 3.02

Entry CCOc1cccc(/C(O)=C2/C(=O)C(=O)N(CCN3CCOCC3)C2c2cccnc2)c1 (configuration not stated) ; inhibition = 28.3

Entry CCCN(CC1CC1)C(=O)Nc1ccccc1C ; inhibition = -19

Entry CC(C)CN(CC(C)C)C(=O)CS(=O)(=O)Cc1ccccc1 ; inhibition = 16.4

Entry CN1CCC(NC(=O)c2cccs2)CC1 ; inhibition = 33.8

Entry CCn1cc(C2=NCC(C)O2)c2ccccc21 (configuration not stated) ; inhibition = 25.5

Entry O=C(Cn1cnc2ccccc2c1=O)NCCC(=O)N1CCN(c2ccccc2)CC1 ; inhibition = 23.6

Entry Cn1nnnc1SCC(=O)Nc1ccccc1-c1ccccc1 ; inhibition = -4.74

Entry CC(=O)N1CCN=C1SCc1ccc(Br)cc1 ; inhibition = 22.3

Entry Clc1ccc(C2Nc3ccccc3-n3cccc32)cc1 (configuration not stated) ; inhibition = 18.8

Entry O=C(Nc1nc(-c2ccc(S(=O)(=O)N3CCCC3)cc2)cs1)C1COc2ccccc2O1 (configuration not stated) ; inhibition = 2.65

Entry COc1cc(OC)cc(-c2nc(N)n[nH]2)c1 ; inhibition = 12

Entry Cc1ccc(C)c(N2CCN(C(=O)c3cc4ccccn4n3)CC2)c1 ; inhibition = 21.6

###

assay: inhibitors of Chlamydomonas gravitaxis, primary screen, whole organism, Chlamydomonas reinhardtii, WT vs cilia-less mutant, absorbance, 96-well (AID 463189); details: OD600 absorbance, 2 days, at 10 µM, stronger effect = higher value;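 further: 0% = wild type cc124 cells in DMSO and 100% = ciliumless bld1 mutant cells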
I would appreciate it if you labelled entries yes (1) when inhibition is 20% or higher, otherwise no (0).

Enquiry: Determine whether measured inhibition meets or exceeds 20% for N#C/C(C(=O)N1CCCCC1)=C1\Nc2ccccc2S1
Return: no (0)

Enquiry: Determine whether measured inhibition meets or exceeds 20% for CSc1nc2sc3c(c2c2nnnn12)CCC3
Return: no (0)

Enquiry: Determine whether measured inhibition meets or exceeds 20% for COC(=O)/C=c1/s/c(=C(/C#N)C(=O)N2CCCCC2)n(-c2ccccc2)c1=O
Return: no (0)

Enquiry: Determine whether measured inhibition meets or exceeds 20% for COc1ccc(NC(=O)c2c(C)cc(=O)oc2C)c(OC)c1
Return: no (0)

Enquiry: Determine whether measured inhibition meets or exceeds 20% for CCC(=NC(CC)CO)C1=C(O)CC(C)(C)CC1=O (configuration not stated)
Return: no (0)

Enquiry: Determine whether measured inhibition meets or exceeds 20% for O=C(CC(c1ccco1)S(=O)(=O)c1ccccc1)c1ccc(F)cc1 (configuration not stated)
Return: yes (1)

Enquiry: Determine whether measured inhibition meets or exceeds 20% for CC1N(O)C(c2ccc(Cl)cc2Cl)N(O)C1(C)C (configuration not stated)
Return: yes (1)

Enquiry: Determine whether measured inhibition meets or exceeds 20% for O=C1CCC(=O)N1c1nc2n(n1)C(c1ccccc1)C=C(c1ccc(Br)cc1)N2 (configuration not stated)
Return: no (0)

Enquiry: Determine whether measured inhibition meets or exceeds 20% for CCOc1ccc2nc(NC(NC(=O)CC)(C(=O)OC)C(F)(F)F)sc2c1 (configuration not stated)
Return: no (0)

Enquiry: Determine whether measured inhibition meets or exceeds 20% for CC1(C)CCN(Cc2ccccc2)C1CC#N (configuration not stated)
Return: yes (1)

Enquiry: Determine whether measured inhibition meets or exceeds 20% for CC(C)(C)c1cc(-c2ccco2)c(C#N)c(SCC#N)n1
Return: no (0)

Enquiry: Determine whether measured inhibition meets or exceeds 20% for Cc1cc2ccccc2cc(C)c1=O
Return: no (0)

Enquiry: Determine whether measured inhibition meets or exceeds 20% for Cc1cc2c(C)nc(Cc3ccccc3)nc2o1
Return: no (0)

Enquiry: Determine whether measured inhibition meets or exceeds 20% for Cc1ccc2[nH]c3c(c2c1)CN(C(=O)CN1CC(C)OC(C)C1)CC3 (configuration not stated)
Return: yes (1)

Enquiry: Determine whether measured inhibition meets or exceeds 20% for Cc1ccc(Oc2nc3c(c(=O)n(Cc4ccccc4F)c(=O)n3C)n2C)cc1
Return: no (0)

Enquiry: Determine whether measured inhibition meets or exceeds 20% for COC(=O)c1ccccc1NC(=O)C1COc2ccccc2O1 (configuration not stated)
Return: no (0)

Enquiry: Determine whether measured inhibition meets or exceeds 20% for CCCCCOC(=O)C(C)c1c(C)[nH]c(=S)[nH]c1=O (configuration not stated)
Return: no (0)

Enquiry: Determine whether measured inhibition meets or exceeds 20% for COc1ccc(-n2ncc3c(NCCCn4ccnc4)ncnc32)cc1
Return: no (0)

Enquiry: Determine whether measured inhibition meets or exceeds 20% for CCN(CC)c1ccc(C2Nc3cccc4cccc(c34)N2)c(O)c1
Return: yes (1)

Enquiry: Determine whether measured inhibition meets or exceeds 20% for CCCCN(CCCC)C(=O)CSc1nnc2n(C)c(=O)c3c4c(sc3n12)CCCC4
Return: yes (1)

Enquiry: Determine whether measured inhibition meets or exceeds 20% for CSc1nc2[nH]c3c(c2c2ncnn12)CCCC3
Return: yes (1)

Enquiry: Determine whether measured inhibition meets or exceeds 20% for COC(=O)c1cc(Br)c(=O)n(-c2cc(C)on2)c1
Return: no (0)

Enquiry: Determine whether measured inhibition meets or exceeds 20% for O=C(O)c1cc2sccc2s1
Return: no (0)

Enquiry: Determine whether measured inhibition meets or exceeds 20% for COC(=O)c1c(C)[nH]c(C(=O)OCc2ccc(F)cc2)c1C
Return: yes (1)

Enquiry: Determine whether measured inhibition meets or exceeds 20% for Cc1nn(CC(=O)N2CCOCC2)c(=O)c2ccccc12
Return: no (0)

Enquiry: Determine whether measured inhibition meets or exceeds 20% for CCCCC(CCC(=O)Nc1ccc(C(=O)OCC)cc1)C(=O)O (configuration not stated)
Return: no (0)

Enquiry: Determine whether measured inhibition meets or exceeds 20% for Cc1ccc(-n2[nH]c(C)c(C=Nc3cc(C)ccn3)c2=O)cc1
Return: yes (1)

###

assay: inhibitors of TNFa-induced NFkB p65 translocation, primary screen, imaging, HUVEC, MLSMR starter and 10KST1 sets (AID 438); conditions: HUVEC TNFa-induced p65 nuclear translocation; measured here: nuclei count (cytotoxicity indicator), at 2.08 µM;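 further: compound added about 3h40 before a 20 min TNFalpha stimulation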
I would appreciate it if you labelled entries Yes when cell count is 500 or higher, otherwise No.

Enquiry: Determine whether measured cell count meets or exceeds 500 for O=C1NCC(COCC2CC=CCC2)O1 (stereo unspecified)
Return: Yes

Enquiry: Determine whether measured cell count meets or exceeds 500 for COc1ccccc1C(=O)N1CCN=C1SCc1cccnc1
Return: No

Enquiry: Determine whether measured cell count meets or exceeds 500 for CCOc1cccc(NC(=O)C2CC(=O)NC(=Nc3ccccc3)S2)c1 (stereo unspecified)
Return: Yes

Enquiry: Determine whether measured cell count meets or exceeds 500 for COc1ccc(CC(=O)NCc2nnc(SCC(=O)Nc3nccs3)n2-c2ccccc2)cc1
Return: Yes

Enquiry: Determine whether measured cell count meets or exceeds 500 for CC(=O)CCn1c(=O)n(CCC(C)=O)c(=O)n(CCC(C)=O)c1=O
Return: No

###

Would you mind telling me the reported nuclei count of each entry?
assay: inhibitors of E-selectin induction by TNFa, primary screen, imaging, HUVEC, immunofluorescence, MLSMR starter and 10KST1 sets (AID 487); conditions: HUVEC TNFalpha-induced E-selectin immunofluorescence imaging, at 2 µM; measured here: cell number, toxicity;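 further: 100% = median nuclei count of all wells on the same plate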
Param answer (str): number followed by unit.

Entry Cc1cc(C)c(S(=O)(=O)O)c(C)n1 ; nuclei count = 203%

Entry Cc1cccc(NC(=O)CS(=O)(=O)c2cn(C)c3ccccc23)c1 ; nuclei count = 103%

Entry O=C(CSc1nc2ccccc2s1)Nn1cnnc1 ; nuclei count = 166%

###

target: Voltage-gated potassium channel subunit beta-2 (Rattus norvegicus); experiment: KvBeta positive modulators, primary screen, biochemical, NADPH fluorescence (AID 623); details: Recombinant KvBeta, NADPH fluorescence decrease slope, 10 min; at 10 µM; stronger effect = lower value;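 further: fluorescence intensity change per second fitted from 20 to 320 s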
Calls of active or inactive are those of the source.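 The calls were made as follows: active = NADPH fluorescence slope more negative than the mean of all samples by about 3 SD, 99.7% confidence; inactive = the rest.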
Would you mind telling me the reported NADPH fluorescence slope of each entry?

Entry CC(C)(C)C(=O)CNS(=O)(=O)c1ccc(S(=O)(=O)NC2CCCC2)cc1 ; NADPH fluorescence slope = 2.8e-05 (inactive)

Entry CCCCSc1nc(O)c(C2OC(=O)c3c2ccc(OC)c3OC)c(=O)n1C (stereo not given) ; NADPH fluorescence slope = -2.3e-05 (inactive)

Entry CCOC(=O)C(C)(C)Sc1nc2c(cnn2-c2ccc(Cl)cc2)c(=O)[nH]1 ; NADPH fluorescence slope = -5e-05 (inactive)

Entry Cn1nnnc1SCC(=O)Nc1ccccc1-c1ccccc1 ; NADPH fluorescence slope = -1.3e-05 (inactive)

Entry Cn1c(N)c(C#N)c(C#N)c1-c1ccccc1 ; NADPH fluorescence slope = -1.8e-05 (inactive)
